Values were extracted from ChEMBL document CHEMBL3525982.

# TEST NAME: Tmax in healthy human at 800 ug, po as single dose by LC-MS/MS analysis
# Assay type: ADME, organism-based
# MEASUREMENT SETUP: in vivo

{"COMPOUND": "CCc1cc2c(cc1CC)CC(NC[C@H](O)c1ccc(O)c3[nH]c(=O)ccc13)C2.O=C(O)/C=C\\C(=O)O [INDACATEROL MALEATE]", "UNIT ABBREV": "h", "Tmax": 1.75}

----------
# TEST NAME: Drug recovery in healthy human feces at 800 ug, po as single dose measured after 168 hrs postdose by liquid scintillation counting
# Type: ADME, organism-based
# MEASUREMENT SETUP: in vivo

{"COMPOUND": "CCc1cc2c(cc1C(C)O)CC(NC[C@H](O)c1ccc(O)c3[nH]c(=O)ccc13)C2 (stereo in doubt; P26.9)", "UNIT ABBREV": "%", "Drug recovery": 17}
{"COMPOUND": "CCc1cc2c(cc1CC)CC(NC[C@H](O)c1ccc(O)c3[nH]c(=O)ccc13)C2.O=C(O)/C=C\\C(=O)O [INDACATEROL MALEATE]", "UNIT ABBREV": "%", "Drug recovery": 54}
